- Tested on: Microbacterium otitidis
- TEST PROTOCOL: In vitro activity (MIC) by agar and broth dilution methods against clinical isolates
- Assay type: cell-based
- SETTINGS: clinical isolate MCC 11495; read-out: minimum inhibitory concentration (MIC)
ASSAY READOUT: MIC
Show the value, then the unit it is measured in.

Consider the worked cases shown below.
- COMPOUND: "CCC[C@@H]1C[C@@H](C(=O)N[C@@H]([C@H]2O[C@H](SC)[C@H](O)[C@@H](O)[C@H]2O)[C@H](C)Cl)N(C)C1 [Clindamycin]"
  SYSTEM TESTED: "Microbacterium otitidis"
  RECORDED RESULT: "0.03 µg/mL"
- COMPOUND: "CC1COc2c(N3CCN(C)CC3)c(F)cc3c(=O)c(C(=O)O)cn1c23 (stereo not shown) [Ofloxacin]"
  SYSTEM TESTED: "Microbacterium otitidis"
  RECORDED RESULT: "16 µg/mL"
- COMPOUND: "CC[C@H]1OC(=O)[C@H](C)[C@@H](O[C@H]2C[C@@](C)(OC)[C@@H](O)[C@H](C)O2)[C@H](C)[C@@H](O[C@@H]2O[C@H](C)C[C@H](N(C)C)[C@H]2O)[C@](C)(O)C[C@@H](C)C(=O)[C@H](C)[C@@H](O)[C@]1(C)O [Erythromycin]"
  SYSTEM TESTED: "Microbacterium otitidis"
  RECORDED RESULT: "0.03 µg/mL"

Now look at this one.
Entry under review: O=C(N[C@H](CO)[C@H](O)c1ccc([N+](=O)[O-])cc1)C(Cl)Cl [Chloramphenicol] . Reported MIC?
1 µg/mL
